System: Escherichia coli TOP10
ASSAY: shrunken log2 fold change of peptide-encoding DNA abundance (4.5 h post-induction vs induction); higher = less antimicrobial activity (less host growth inhibition)
RUN CONDITIONS: time post-induction: 4.5 h; library: site-saturation at positions 5, 18, 19, 20
Categories are assigned from the measured shrunken log2 fold change using these intervals: low interval = under -0.2, middle interval = from -0.2 up to -0.07, high interval = -0.07 and over

Sample answers from the record:
RRIRYRPPRLPRPRPRPPIKPRP : low interval
RRIRKRPPRLPRPRPRPYRDPRP : high interval
RRIRPRPPRLPRPRPRPVFNPRP : low interval
RRIRQRPPRLPRPRPRPNHYPRP : low interval
RRIRYRPPRLPRPRPRPKVWPRP : high interval

Class (by measured shrunken log2 fold change) for RRIRSRPPRLPRPRPRPYNAPRP low interval

Class (by measured shrunken log2 fold change) for RRIRYRPPRLPRPRPRPSDWPRP middle interval

Class (by measured shrunken log2 fold change) for RRIRARPPRLPRPRPRPCTHPRP middle interval

Class (by measured shrunken log2 fold change) for RRIRMRPPRLPRPRPRPKKDPRP high interval

Class (by measured shrunken log2 fold change) for RRIRPRPPRLPRPRPRPMLNPRP middle interval

Class (by measured shrunken log2 fold change) for RRIRMRPPRLPRPRPRPMPEPRP high interval

Class (by measured shrunken log2 fold change) for RRIRHRPPRLPRPRPRPSWIPRP middle interval

====

Below, each entry is listed alongside its reported shrunken log2 fold change.
Test system: Escherichia coli TOP10
ASSAY: shrunken log2 fold change of peptide-encoding DNA abundance (4.5 h post-induction vs induction); higher = less antimicrobial activity (less host growth inhibition)
RUN CONDITIONS: time post-induction: 4.5 h; library: site-saturation at positions 5, 18, 19, 20
Answer using only a numeral; do not append any unit.

Consider the following illustrative entries.
RRIRDRPPRLPRPRPRPALSPRP : 0.0869
RRIRGRPPRLPRPRPRPGWYPRP : -0.0318
RRIRSRPPRLPRPRPRPMNLPRP : 0.048
RRIRFRPPRLPRPRPRPYCGPRP : -0.306

Supply reported shrunken log2 fold change belonging to this sequence: RRIRPRPPRLPRPRPRPDKLPRP 0.038

Supply reported shrunken log2 fold change belonging to this sequence: RRIRIRPPRLPRPRPRPEAFPRP 0.0813

====

System: Escherichia coli TOP10
ASSAY: shrunken log2 fold change of peptide-encoding DNA abundance (4.5 h post-induction vs induction); higher = less antimicrobial activity (less host growth inhibition)
RUN CONDITIONS: time post-induction: 4.5 h; library: site-saturation at positions 5, 18, 19, 20
Below, each entry is listed alongside its reported shrunken log2 fold change.
Answer using only a numeral; do not append any unit.

Supply reported shrunken log2 fold change belonging to this sequence: RRIRLRPPRLPRPRPRPRMLPRP -0.0478

Supply reported shrunken log2 fold change belonging to this sequence: RRIRWRPPRLPRPRPRPGKNPRP 0.13

Supply reported shrunken log2 fold change belonging to this sequence: RRIRVRPPRLPRPRPRPHTIPRP -0.487

====

Tested on: Escherichia coli TOP10
ASSAY: shrunken log2 fold change of peptide-encoding DNA abundance (4.5 h post-induction vs induction); higher = less antimicrobial activity (less host growth inhibition)
RUN CONDITIONS: time post-induction: 4.5 h; library: site-saturation at positions 5, 18, 19, 20
Categories are assigned from the measured shrunken log2 fold change using these intervals: low bin = under -0.2, mid bin = from -0.2 up to 0.2, high bin = 0.2 and over

RRIRTRPPRLPRPRPRPYSFPRP : low bin

Class (by measured shrunken log2 fold change) for RRIRVRPPRLPRPRPRPPLFPRP high bin

Class (by measured shrunken log2 fold change) for RRIRQRPPRLPRPRPRPHPFPRP low bin

Class (by measured shrunken log2 fold change) for RRIRNRPPRLPRPRPRPKWVPRP mid bin

Class (by measured shrunken log2 fold change) for RRIRERPPRLPRPRPRPILKPRP low bin

====

Below, each entry is listed alongside its reported shrunken log2 fold change.
Test system: Escherichia coli TOP10
ASSAY: shrunken log2 fold change of peptide-encoding DNA abundance (4.5 h post-induction vs induction); higher = less antimicrobial activity (less host growth inhibition)
RUN CONDITIONS: time post-induction: 4.5 h; library: site-saturation at positions 5, 18, 19, 20
Answer using only a numeral; do not append any unit.

RRIRPRPPRLPRPRPRPYEHPRP : -0.408
RRIRIRPPRLPRPRPRPSLYPRP : -0.535
RRIRPRPPRLPRPRPRPKSCPRP : 0.0347
RRIRPRPPRLPRPRPRPLWDPRP : 0.00439
RRIRVRPPRLPRPRPRPHLGPRP : -0.132

Supply reported shrunken log2 fold change belonging to this sequence: RRIRMRPPRLPRPRPRPCPVPRP 0.0171

Supply reported shrunken log2 fold change belonging to this sequence: RRIRLRPPRLPRPRPRPSNLPRP -0.181

Supply reported shrunken log2 fold change belonging to this sequence: RRIRDRPPRLPRPRPRPRFMPRP -0.0192

Supply reported shrunken log2 fold change belonging to this sequence: RRIRMRPPRLPRPRPRPADPPRP 0.36

Supply reported shrunken log2 fold change belonging to this sequence: RRIRSRPPRLPRPRPRPMYKPRP -1.13

Supply reported shrunken log2 fold change belonging to this sequence: RRIRKRPPRLPRPRPRPQNSPRP -0.0372

Supply reported shrunken log2 fold change belonging to this sequence: RRIRIRPPRLPRPRPRPTHAPRP 0.216

Supply reported shrunken log2 fold change belonging to this sequence: RRIRWRPPRLPRPRPRPARVPRP 0.413

Supply reported shrunken log2 fold change belonging to this sequence: RRIRHRPPRLPRPRPRPPWLPRP 0.242

Supply reported shrunken log2 fold change belonging to this sequence: RRIRQRPPRLPRPRPRPIMFPRP -0.144

Supply reported shrunken log2 fold change belonging to this sequence: RRIRGRPPRLPRPRPRPPTRPRP 1

Supply reported shrunken log2 fold change belonging to this sequence: RRIRIRPPRLPRPRPRPRLTPRP -0.0559

====

Tested on: Escherichia coli TOP10
ASSAY: shrunken log2 fold change of peptide-encoding DNA abundance (4.5 h post-induction vs induction); higher = less antimicrobial activity (less host growth inhibition)
RUN CONDITIONS: time post-induction: 4.5 h; library: site-saturation at positions 5, 18, 19, 20
Below, each entry is listed alongside its reported shrunken log2 fold change.
Answer using only a numeral; do not append any unit.

Consider the following illustrative entries.
RRIRTRPPRLPRPRPRPRQYPRP : -0.302
RRIRWRPPRLPRPRPRPWFVPRP : -0.168

Supply reported shrunken log2 fold change belonging to this sequence: RRIRVRPPRLPRPRPRPPHRPRP 0.29

Supply reported shrunken log2 fold change belonging to this sequence: RRIRCRPPRLPRPRPRPVANPRP 0.0866

====

Below, each entry is listed alongside its reported shrunken log2 fold change.
System: Escherichia coli TOP10
ASSAY: shrunken log2 fold change of peptide-encoding DNA abundance (4.5 h post-induction vs induction); higher = less antimicrobial activity (less host growth inhibition)
RUN CONDITIONS: time post-induction: 4.5 h; library: site-saturation at positions 5, 18, 19, 20
Answer using only a numeral; do not append any unit.

Consider the following illustrative entries.
RRIRVRPPRLPRPRPRPRMHPRP : 0.151
RRIRFRPPRLPRPRPRPGAGPRP : 0.289
RRIRWRPPRLPRPRPRPCSPPRP : -0.106
RRIRFRPPRLPRPRPRPMHLPRP : 0.00575
RRIRPRPPRLPRPRPRPTLIPRP : -0.169

Tell me shrunken log2 fold change of RRIRRRPPRLPRPRPRPKSGPRP when tested on Escherichia coli TOP10. -0.0499

Tell me shrunken log2 fold change of RRIRRRPPRLPRPRPRPWFFPRP when tested on Escherichia coli TOP10. 0.08

Tell me shrunken log2 fold change of RRIRARPPRLPRPRPRPKYGPRP when tested on Escherichia coli TOP10. -0.0411

====

Tested on: Escherichia coli TOP10;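 note: peptides expressed intracellularly from a pBAD plasmid library in pooled LB shake-flask culture, induced with 0.3% L-arabinose, DNA abundance read by NGS, three biological replicates, DESeq2 with apeglm shrinkage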
ASSAY: shrunken log2 fold change of peptide-encoding DNA abundance (4.5 h post-induction vs induction); higher = less antimicrobial activity (less host growth inhibition)
RUN CONDITIONS: time post-induction: 4.5 h; library: site-saturation at positions 5, 18, 19, 20
Returns one of 1 or -1; 1 when shrunken log2 fold change is >= 0.03.

RRIRSRPPRLPRPRPRPADVPRP : 1
RRIRKRPPRLPRPRPRPDVAPRP : -1
RRIRCRPPRLPRPRPRPPATPRP : 1
RRIRFRPPRLPRPRPRPHTHPRP : -1

Identify whether the reported shrunken log2 fold change of the following sequence is 0.03 or greater: RRIRFRPPRLPRPRPRPQHMPRP -1

Identify whether the reported shrunken log2 fold change of the following sequence is 0.03 or greater: RRIRGRPPRLPRPRPRPQGSPRP -1

Identify whether the reported shrunken log2 fold change of the following sequence is 0.03 or greater: RRIRGRPPRLPRPRPRPAHDPRP 1

Identify whether the reported shrunken log2 fold change of the following sequence is 0.03 or greater: RRIRKRPPRLPRPRPRPPYSPRP -1

Identify whether the reported shrunken log2 fold change of the following sequence is 0.03 or greater: RRIRFRPPRLPRPRPRPGCTPRP -1
